The values you see were collected from ChEMBL document CHEMBL3588746.

- Organism: Homo sapiens
- assay_explanation: Selectivity ratio of Ki for human dopamine D2 receptor to Ki for human dopamine D3 receptor
measure_name: Ratio Ki

These solved cases illustrate the format of a correct answer.
compound="COc1ccccc1N1CCN(CC(O)CCn2cc(-c3ccc4ncccc4c3)nn2)CC1 (racemic)" measure_name="Ratio Ki" val=6.2
compound=COc1ccccc1N1CCN(CCCCc2cn(-c3ccc4[nH]ccc4c3)nn2)CC1 measure_name="Ratio Ki" val=17
compound=COc1ccccc1N1CCN(CCCCc2cn(-c3ccc4ccccc4c3)nn2)CC1 measure_name="Ratio Ki" val=11
compound=COc1ccccc1N1CCN(CCCCc2cn(-c3cccc4ncccc34)nn2)CC1 measure_name="Ratio Ki" val=6.4
compound="COc1ccccc1N1CCN(CC(O)CCn2cc(-c3ccc(-c4ccccc4)cc3)nn2)CC1 (racemic)" measure_name="Ratio Ki" val=27

1 = Clc1cccc(N2CCN(CCCCc3cn(-c4ccc5ccccc5c4)nn3)CC2)c1Cl
2 = Clc1cccc(N2CCN(CCCCn3cc(-c4ccc(-c5ccccc5)cc4)nn3)CC2)c1Cl
3 = COc1ccccc1-c1cn(CCC(O)CN2CCN(c3ccccc3OC)CC2)nn1 (racemic)
4 = COc1ccccc1N1CCN(CCCCn2cc(-c3ccccc3)nn2)CC1
[in] # rank_down: sort by Ratio Ki, max first Arrange the labels as the request states and list them.
[out] 2, 1, 4, 3

###

- test_system: D(2) dopamine receptor (Homo sapiens, UniProt P14416)
- Sequence (P14416 whole entry): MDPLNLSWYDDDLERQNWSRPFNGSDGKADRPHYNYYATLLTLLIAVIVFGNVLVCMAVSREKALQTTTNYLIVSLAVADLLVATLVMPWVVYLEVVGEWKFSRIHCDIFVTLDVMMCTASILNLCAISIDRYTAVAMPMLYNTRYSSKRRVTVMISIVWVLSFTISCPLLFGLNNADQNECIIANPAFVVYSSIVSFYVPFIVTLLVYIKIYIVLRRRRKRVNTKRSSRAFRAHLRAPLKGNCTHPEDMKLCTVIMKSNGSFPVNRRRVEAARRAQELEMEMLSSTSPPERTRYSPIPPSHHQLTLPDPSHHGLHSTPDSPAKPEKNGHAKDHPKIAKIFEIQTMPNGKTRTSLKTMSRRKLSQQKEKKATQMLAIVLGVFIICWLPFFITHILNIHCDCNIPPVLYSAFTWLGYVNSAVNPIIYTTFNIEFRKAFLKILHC
- assay_explanation: Displacement of [3H]-N-methylspiperone from human dopamine D2 receptor expressed in HEK293 cell membranes after 1 hr by liquid scintillation counting analysis
pKi: −log10 of the molar value.
measure_name: pKi

These solved cases illustrate the format of a correct answer.
compound="COc1ccccc1N1CCN(CC(O)CCn2cc(-c3ccc4c(c3)Cc3ccccc3-4)nn2)CC1 (racemic)" measure_name=pKi val=6.22
compound=Clc1cccc(N2CCN(CCCCn3cc(-c4ccc5[nH]ccc5c4)nn3)CC2)c1Cl measure_name=pKi val=7.25
compound=Clc1cccc(N2CCN(CCCCc3cn(-c4ccc5c(c4)Cc4ccccc4-5)nn3)CC2)c1Cl measure_name=pKi val=6.37

A = OC(CCn1cc(-c2ccc3ccccc3c2)nn1)CN1CCN(c2cccc(Cl)c2Cl)CC1 (racemic)
B = OC(CCn1cc(-c2ccc3[nH]ccc3c2)nn1)CN1CCN(c2cccc(Cl)c2Cl)CC1 (racemic)
[in] Quick check, higher pKi between A and B ? Kindly state the label of the option you pick.
[out] B

###

- test_system: D(3) dopamine receptor (Homo sapiens)
- Sequence (P35462 whole entry): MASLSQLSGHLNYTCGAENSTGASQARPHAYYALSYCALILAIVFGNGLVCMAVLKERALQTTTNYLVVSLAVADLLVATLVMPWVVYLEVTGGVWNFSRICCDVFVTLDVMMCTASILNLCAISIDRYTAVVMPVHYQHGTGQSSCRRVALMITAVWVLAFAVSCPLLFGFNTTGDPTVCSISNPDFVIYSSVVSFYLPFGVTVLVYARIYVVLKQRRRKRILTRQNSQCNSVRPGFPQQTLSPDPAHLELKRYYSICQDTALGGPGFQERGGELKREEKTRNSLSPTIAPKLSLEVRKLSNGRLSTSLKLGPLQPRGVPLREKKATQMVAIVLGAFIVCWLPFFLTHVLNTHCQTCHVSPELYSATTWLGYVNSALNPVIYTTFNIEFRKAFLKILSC
pKi: −log10 of the molar value.
measure_name: pKi

These solved cases illustrate the format of a correct answer.
compound="OC(CCn1cc(-c2ccc3ccccc3c2)nn1)CN1CCN(c2cccc(Cl)c2Cl)CC1 (racemic)" test_system="D(3) dopamine receptor (Homo sapiens)" val=7.60
compound=COc1ccccc1N1CCN(CCCCn2cc(-c3ccc4ncccc4c3)nn2)CC1 test_system="D(3) dopamine receptor (Homo sapiens)" val=8.17
compound=COc1ccccc1N1CCN(CCCCc2cn(-c3ccc4[nH]ccc4c3)nn2)CC1 test_system="D(3) dopamine receptor (Homo sapiens)" val=8.51

I = Clc1cccc(N2CCN(CCCCn3cc(-c4ccc5ncccc5c4)nn3)CC2)c1Cl
II = COc1ccccc1N1CCN(CC(O)CCn2cc(-c3ccc4ncccc4c3)nn2)CC1 (racemic)
III = COc1ccccc1N1CCN(CCCCc2cn(-c3cccc4ncccc34)nn2)CC1
[in] # rank_down: sort by pKi, max first Arrange the labels as the request states and list them.
[out] I, III, II
